system: Kasumi-1 cells; experiment: Viability (MTS) of Kasumi-1 AML cells; format: cell-based, human; settings: Homo sapiens, Kasumi 1; 72 h; Fig. 7c; read-out: IC50, viability of Kasumi-1 cells
Field: IC50. Provide a value for each of the compounds that follow.
Kindly answer with a numeric value in nM, unit omitted.

Q: Consider the compound Cc1ncsc1-c1ccc([C@H](C)NC(=O)[C@@H]2C[C@@H](O)CN2C(=O)[C@@H](NC(=O)CCCCCC(=O)N2CCN(CC[C@H](CSc3ccccc3)Nc3ccc(S(=O)(=O)NC(=O)c4ccc(N5CCN(CC6=C(c7ccc(Cl)cc7)CCC(C)(C)C6)CC5)cc4)cc3S(=O)(=O)C(F)(F)F)CC2)C(C)(C)C)cc1 [DT2216] . State its measured IC50.
Result: 1150

Q: Please look at this compound and report its IC50: CC1(C)CCC(c2ccc(Cl)cc2)=C(CN2CCN(c3ccc(C(=O)NS(=O)(=O)c4ccc(N[C@H](CCN5CCOCC5)CSc5ccccc5)c(S(=O)(=O)C(F)(F)F)c4)cc3)CC2)C1 [ABT263, navitoclax]
Result: 131

Q: Please report the measured IC50 for CC1(C)CCC(CN2CCN(c3ccc(C(=O)NS(=O)(=O)c4ccc(NCC5CCOCC5)c([N+](=O)[O-])c4)c(Oc4cnc5[nH]ccc5c4)c3)CC2)=C(c2ccc(Cl)cc2)C1 [ABT199, venetoclax]
Result: 1130

###

test: Viability (MTS) of 293T cells; type: cell-based, human; conditions: human, 293T cell viability, MTS absorbance 490 as percent of untreated control, mean of three wells, 1 uM, mean of 3 wells, normalised to own plate
measured quantity: viability at 72 h, 1 µM

Q: Supply recorded viability at 72 h, 1 µM for CC1(C)CCC(c2ccc(Cl)cc2)=C(CN2CCN(c3ccc(C(=O)NS(=O)(=O)c4ccc(N[C@H](CCN5CCOCC5)CSc5ccccc5)c(S(=O)(=O)C(F)(F)F)c4)cc3)CC2)C1 here.
Result: 98.5%

###

molecular target: BCL-2 (Homo sapiens, UniProt P10415); construct: endogenous in cells; assay: BCL-2 degradation by immunoblot in 293T cells; type: cell-based; settings: HEK-293T
Sequence (P10415 whole entry): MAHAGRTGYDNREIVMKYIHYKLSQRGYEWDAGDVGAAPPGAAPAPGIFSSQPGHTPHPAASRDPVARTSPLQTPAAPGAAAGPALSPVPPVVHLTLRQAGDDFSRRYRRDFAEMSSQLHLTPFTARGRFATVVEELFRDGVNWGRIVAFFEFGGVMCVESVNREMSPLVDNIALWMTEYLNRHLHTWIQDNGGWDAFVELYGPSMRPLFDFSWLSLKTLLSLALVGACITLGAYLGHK
Please provide measured Dmax for the entries that follow.

Q: Name the value of Dmax reported for Cc1ncsc1-c1ccc([C@H](C)NC(=O)[C@@H]2C[C@@H](O)CN2C(=O)[C@@H](NC(=O)CCCCC(=O)N2CCN(CC3(C)CCC(c4ccc(Cl)cc4)=C(CN4CCN(c5ccc(C(=O)NS(=O)(=O)c6ccc(N[C@H](CCN7CCOCC7)CSc7ccccc7)c(S(=O)(=O)C(F)(F)F)c6)cc5)CC4)C3)CC2)C(C)(C)C)cc1 (some centres unmarked) [PPC6] when tested on BCL-2 (Homo sapiens, UniProt P10415).
Result: 47%

Q: Enter measured Dmax, system BCL-2 (Homo sapiens, UniProt P10415), for the molecule shown: Cc1ncsc1-c1ccc([C@H](C)NC(=O)[C@@H]2C[C@@H](O)CN2C(=O)[C@@H](NC(=O)CCCCCCCCCC(=O)N2CCN(CC3(C)CCC(c4ccc(Cl)cc4)=C(CN4CCN(c5ccc(C(=O)NS(=O)(=O)c6ccc(N[C@H](CCN7CCOCC7)CSc7ccccc7)c(S(=O)(=O)C(F)(F)F)c6)cc5)CC4)C3)CC2)C(C)(C)C)cc1 (some centres unmarked) [PPC11]
Result: 38%
